Items are presented alongside their recorded Retention_time.
Run description: Retention time of the compound using 2 to 90% MeCN in H2O with 0.1% FA over 15 mins by RP-LC method
Assay type: physicochemical
Test parameters: 0.25 h
Starred links: 1 amine or outer side, 2 acyl side, 3 side chain; linkers in the order of their positions; H or OH if unused. Non-standard residues stand in square brackets, D forms with d. Residues, ends and D or L forms follow the SMILES beside them. azaTyr = O=C(N(Cc1ccc(O)cc1)N[*:1])[*:2]; X1 = O=C(N(Cc1ccc(O)c(O)c1)N[*:1])[*:2]; azaPhe = O=C(N(Cc1ccccc1)N[*:1])[*:2]; X3 = CC[C@H](C)N(N[*:1])C(=O)[*:2]; X2 = O=C(O)CCN(N[*:1])C(=O)[*:2]; AzaAla = CN(N[*:1])C(=O)[*:2]; azaGly = NNC(=O)O
Property measured: Retention_time

Compound: CC(=O)N[C@@H](CC(=O)O)C(=O)NN(C)C(=O)N[C@@H](Cc1ccc(O)cc1)C(=O)N[C@@H](CCC(=O)O)C(=O)N[C@H](C(N)=O)[C@@H](C)O (Ac-D[AzaAla]YET-NH2)
Property measured: Retention_time
Result: 5.26 min
--
Compound: CC(=O)N[C@@H](CC(=O)O)C(=O)NNC(=O)N[C@@H](Cc1ccc(O)cc1)C(=O)N[C@@H](CCC(=O)O)C(=O)N[C@H](C(N)=O)[C@@H](C)O (Ac-D[azaGly]YET-NH2)
Property measured: Retention_time
Result: 5.04 min
--
Compound: CC[C@H](C)[C@H](NC(=O)[C@H](CC(=O)O)NC(C)=O)C(=O)NN(Cc1ccc(O)cc1)C(=O)N[C@@H](CCC(=O)O)C(=O)N[C@H](C(N)=O)[C@@H](C)O (Ac-DI[azaTyr]ET-NH2)
Property measured: Retention_time
Result: 6.68 min
--
Compound: CC[C@H](C)N(NC(=O)[C@H](CC(=O)O)NC(C)=O)C(=O)N[C@@H](Cc1ccc(O)cc1)C(=O)N[C@@H](CCC(=O)O)C(=O)N[C@H](C(N)=O)[C@@H](C)O (Ac-D[X3]YET-NH2)
Property measured: Retention_time
Result: 5.13 min
--
Compound: CC[C@H](C)[C@H](NC(=O)[C@H](CC(=O)O)NC(C)=O)C(=O)NN(Cc1ccc(O)c(O)c1)C(=O)N[C@@H](CCC(=O)O)C(=O)N[C@H](C(N)=O)[C@@H](C)O (Ac-DI[X1]ET-NH2)
Property measured: Retention_time
Result: 6.33 min
--
Compound: CC[C@H](C)[C@H](NC(=O)[C@H](CC(=O)O)NC(C)=O)C(=O)NN(Cc1ccccc1)C(=O)N[C@@H](CCC(=O)O)C(=O)N[C@H](C(N)=O)[C@@H](C)O (Ac-DI[azaPhe]ET-NH2)
Property measured: Retention_time
Result: 7.76 min
--
Compound: CC[C@H](C)[C@H](NC(=O)[C@H](CC(=O)O)NC(C)=O)C(=O)N[C@@H](Cc1ccc(O)cc1)C(=O)NN(CCC(=O)O)C(=O)N[C@H](C(N)=O)[C@@H](C)O (Ac-DIY[X2]T-NH2)
Property measured: Retention_time
Result: 6.41 min

All figures here come from ChEMBL document CHEMBL3352286.
